Assay: qHTS of pediatric cancer cell lines to identify multiple opportunities for drug repurposing: Primary screen for DAOY cells (AID 1347090); also: nearly all actives have a fitted effect of over 55% in size; also: potency is read from the fitted curve at half-maximal effect
Settings: DAOY medulloblastoma viability, CellTiter-Glo luminescence, 48 h; series mostly up to 46 µM
Records with an inconclusive call do not appear. Calls of active or inactive are those of the source. Calls follow the shape of the dose curve; as a rule, active = well fitted cell-killing curve with a large enough effect; inconclusive = small, poorly fitted or top-dose-only effect; inactive = flat fitted curve, though single readings scatter.
measurement-name: Potency

Consider the following illustrative entries.
• CC(C=CC1=C(C)CCCC1(C)C)=CC=CC(C)=CC(=O)Nc1ccc(O)cc1 = 42.9 µM (active)
• CC(=O)O[C@]1(C(C)=O)CC[C@H]2[C@@H]3C=C(C)C4=CC(=O)CC[C@]4(C)[C@@H]3CC[C@@]21C = 7.43 µM (active)
• O=S(=O)(O)CCSSCCS(=O)(=O)O = inactive
• COc1cc(O)c2c(c1)C1OC1C[C@H](O)[C@H](O)C(=O)C=CC[C@H](C)OC2=O (stereo not given in full) = 7.43 µM (active)
• COc1ccc(Nc2nccc(NCCO)n2)cc1 = inactive
• c1ccc2c(Oc3nc(Nc4ccc(N5CCOCC5)cc4)c4ncn(C5CCCCC5)c4n3)cccc2c1 = inactive

// Potency lookup, compound = Cc1coc2c1C(=O)C(=O)c1c-2ccc2c(C)cccc12 , result: inactive

Entry Cc1nc(NC(=O)N2CCC[C@@H]2C(N)=O)sc1-c1ccnc(C(C)(C)C(F)(F)F)c1 , Potency reported as 7.43 µM (active)

So for Nc1cccc2c1C(=O)N(C1CCC(=O)NC1=O)C2=O (stereo not given) , the logged Potency turned out to be inactive

Memo: N#CC(=C(O)c1ccc(Cl)cc1Cl)c1nc2cc(Cl)ccc2c(=O)[nH]1 , reported Potency: inactive

----------
Test: Quantitative High-Throughput drug screen in 47 multiple myeloma cell lines against the NCATS MIPE library collection: ARD_JJKsccE7 cell viability assay (AID 1918929; also: potency is read from the fitted curve at half-maximal effect;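 as to viability: 100% = DMSO-only wells and 0% = media-only wells without cells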)
Conditions: ARD myeloma cell line viability, CellTiter-Glo, 48 h; series mostly up to 45.8 µM
Results filed as inconclusive are left out. The source made the active and inactive calls. Calls come from the whole dose curve; as a rule, active = well fitted cell-killing curve with a large enough effect; inconclusive = small, poorly fitted or top-dose-only effect, or effect the other way; inactive = no such curve, though single readings can be large or run the other way. Non-standard residues stand in square brackets, D forms with d. Residues, ends and D or L forms follow the SMILES beside them. *: point of attachment. Nva = CCC[C@H](N)C(=O)O; Cbz = O=C(OCc1ccccc1)*
measurement-name: Potency

Example entries begin here.
* CC1(C)O[C@@H]2C[C@H]3[C@@H]4CCC5=CC(=O)C=C[C@]5(C)[C@@H]4[C@@H](O)C[C@]3(C)[C@]2(C(=O)CO)O1 | 5.3 nM (active)
* COc1cc(C)c(C=CC(C)=CC=CC(C)=CC(=O)O)c(C)c1C | inactive
* CC(=O)[C@]1(O)Cc2c(O)c3c(c(O)c2[C@@H](O[C@H]2C[C@H](N)[C@@H](O)[C@H](C)O2)C1)C(=O)c1ccccc1C3=O | 3320 nM (active)
* NC(=O)c1ncn([C@@H]2O[C@H](CO)[C@@H](O)[C@@H]2O)c1N | inactive
* COc1cc(C[C@@H](CO)[C@H](CO)Cc2ccc(O)c(OC)c2)ccc1O | 9350 nM (active)
* CN[C@H]1[C@@H](O)[C@@H]2O[C@@H]3O[C@H](C)CC(=O)[C@]3(O)O[C@@H]2[C@@H](NC)[C@H]1O | 469 nM (active)
* COc1cc([C@@H]2c3cc4c(cc3[C@H](O)[C@H]3COC(=O)[C@@H]23)OCO4)cc(OC)c1OC | 59 nM (active)
* CC(C=CC(=O)NO)=C[C@@H](C)C(=O)c1ccc(N(C)C)cc1 | 264 nM (active)

Recorded Potency (compound Cn1c(Nc2ccc(C(F)(F)F)cc2)nc2cc(Oc3ccnc(-c4ncc(C(F)(F)F)[nH]4)c3)ccc21 ): 16600 nM (active)

Record COc1ccc2c(c1OC)C(=O)OC2[C@H]1c2c(cc3c(c2OC)OCO3)CCN1C (stereo partly specified) , field Potency: 74.3 nM (active)

Briefly, Potency measured for c1coc(CNc2ncnc3nc[nH]c23)c1 : inactive

Field Potency (entry CC[C@@]1([C@@H]2O[C@@H]([C@H]3O[C@@](O)(CO)[C@H](C)C[C@H]3C)C[C@H]2C)CC[C@H]([C@]2(C)CC[C@]3(C[C@H](O)[C@@H](C)[C@@H]([C@@H](C)[C@@H](OC)[C@H](C)C(=O)O)O3)O2)O1 ) reads 911 nM (active)

What the record says about CCC[C@@H](C=O)NC(=O)[C@H](CC(C)C)NC(=O)[C@H](CC(C)C)NC(=O)OCc1ccccc1 (Cbz-Leu-Leu-[Nva]-aldehyde) : Potency is 332 nM (active)

----------
Assay: Quantitative High-Throughput drug screen in 47 multiple myeloma cell lines against the NCATS MIPE library collection: KMS21BM_JCRB cell viability assay (AID 1918974)
Conditions: ATP luminescence, 48 h
Inconclusive results are not listed. The source made the active and inactive calls. The call rests on the fitted dose curve; in most records, active means well fitted cell-killing curve with a large enough effect; inconclusive means small, poorly fitted or top-dose-only effect, or effect the other way; inactive means no such curve, though single readings can be large or run the other way.
The reply should be one of these categories: Y for active, N for inactive

# example entries with known answers
* C#Cc1cccc(Nc2ncnc3cc(OCCOC)c(OCCO)cc23)c1 | Y
* Cc1ccc(O)c(C(CCN(C(C)C)C(C)C)c2ccccc2)c1 (centres undefined) | Y
* CCOC(=O)[C@H](CCc1ccccc1)N[C@@H](C)C(=O)N1[C@@H](C(=O)O)C[C@H]2CCC[C@@H]21 | Y

Test call for this compound, please: CC[C@H](CC[C@@H](C)[C@H]1CC[C@H]2[C@@H]3CC=C4C[C@@H](O)CC[C@]4(C)[C@@H]3CC[C@]12C)C(C)C
N

Entry N#Cc1c(C2CCNCC2)cc(-c2c(O)cccc2OCC2CC2)nc1N : call = ?
Y

Just curious, what result did CNC(=O)Nc1ccc(-c2nc(N3CC4CCC(C3)O4)c3cnn(C4CCC5(CC4)OCCO5)c3n2)cc1 get here?
Y

I'd appreciate the recorded outcome for C[N+](C)([O-])CCNc1ccc(NCC[N+](C)(C)[O-])c2c1C(=O)c1c(O)ccc(O)c1C2=O from this test.
N

Please let me know the test result on file for O=C(CCCCCCC(=O)Nc1cccnc1)NO .
Y

Hi, do you know how CC(C)c1cnn2c(NCc3ccccc3)cc(NCCCCCCN)nc12 came out in this test?
Y

// param item: CC(=CC(=O)Nc1ccccc1C(=O)O)c1ccc2ccccc2c1 ; yields the recorded call
N

----------
Test: qHTS Screen of the MIPE 4.0 Collection Against Ewings Sarcoma (EW8) (AID 1259255); also: nearly all actives have a fitted effect of over 35% in size;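 as to viability: 100% = DMSO-treated cells and 0% = medium-only wells without cells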
Settings: EW8 Ewing sarcoma viability, CellTiter-Glo, 48 h; series mostly up to 45.8 µM
Inconclusive results are not listed. Calls of active or inactive are those of the source. Calls follow the shape of the dose curve; as a rule, active = well fitted inhibition curve with a large enough effect; inconclusive = small, poorly fitted or top-dose-only effect; inactive = no such curve, though single readings can be large or run the other way.
Output constraint: value belongs to active, inactive

Example results:
• CC(C)(O)CC[C@@H](O)[C@](C)(O)[C@H]1CC[C@@]2(O)C3=CC(=O)[C@@H]4C[C@@H](O)[C@@H](O)C[C@]4(C)[C@@H]3CC[C@]12C = inactive
• COc1cccc2c1C(=O)c1c(O)c3c(c(O)c1C2=O)C[C@@](O)(C(C)=O)C[C@H]3O[C@H]1C[C@H](N)[C@H](O)[C@H](C)O1 = active
• FC(F)c1nc2ccccc2n1-c1nc(N2CCOCC2)nc(N2CCOCC2)n1 = active
• NC(=O)c1cccc(-c2cccc(OC(=O)NC3CCCCC3)c2)c1 = inactive
• CC(C=CC(=O)NO)=C[C@@H](C)C(=O)c1ccc(N(C)C)cc1 = active

Identify the outcome logged in this assay for the compound shown: CCC(C(=O)O)C1CCC(C)C(C(C)C(O)C(C)C(=O)C(CC)C2OC3(C=CC(O)[C@@]4(CC[C@](C)(C5CC[C@@](O)(CC)C(C)O5)O4)O3)C(C)CC2C)O1 (some centres not stated)
active

Record request — test call for CN(CC(=O)N(Cc1ccc(C2CCCCC2)cc1)c1ccc(C(=O)O)c(O)c1)S(=O)(=O)c1c(F)c(F)c(F)c(F)c1F
active

----------
Assay: Quantitative High-Throughput drug screen in 47 multiple myeloma cell lines against the NCATS MIPE library collection: L363_DSMZ cell viability assay (AID 1918984); also: nearly all actives have a fitted effect of over 40% in size
Conditions: L363 myeloma viability, CellTiter-Glo ATP luminescence, 48 h; series mostly up to 45.8 µM
Records with an inconclusive call do not appear. Calls of active or inactive are those of the source. Calls come from the whole dose curve; as a rule, active = well fitted cell-killing curve with a large enough effect; inconclusive = small, poorly fitted or top-dose-only effect, or effect the other way; inactive = no such curve, though single readings can be large or run the other way.
Valid outcomes are listed here; reply with one: 1 (yes) for active, 0 (no) for inactive

- COc1cccc2c1C(=O)c1c(O)c3c(c(O)c1C2=O)C[C@@](O)(C(C)=O)C[C@H]3O[C@H]1C[C@H](N)[C@H](O)[C@H](C)O1: 1 (yes)
- CC(=O)O[C@]1(C(C)=O)CC[C@H]2[C@@H]3C=C(C)C4=CC(=O)CC[C@]4(C)[C@@H]3CC[C@@]21C: 1 (yes)
- CCC(C=C[C@@H]1OC(=O)C=C[C@H]1C)=C[C@H](C)CC=CC(C)=C[C@@H](C)C(=O)[C@@H](C)[C@H](O)[C@@H](C)CC(C)=CC(=O)O: 1 (yes)
- COc1cc2c(cc1OC)[C@@H]1C(=O)c3ccc4c(c3O[C@@H]1CO2)C=CC(C)(C)O4: 1 (yes)
- N#CNC(=NCCCCCCOc1ccc(Cl)cc1)Nc1ccncc1: 1 (yes)
- Cn1cc(C2=C(c3c4n(c5ccccc35)CCC(CN)C4)C(=O)NC2=O)c2ccccc21 (configuration not stated): 1 (yes)

// outcome(item) with item = COc1cccc2c1C(=O)c1c(O)c3c(c(O)c1C2=O)C[C@@](O)(C(=O)CO)C[C@@H]3O[C@H]1C[C@H](N)[C@H](OC2CCCCO2)[C@H](C)O1 (some centres not stated)
0 (no)

Data credit: PubChem BioAssay (NCATS)
